Biological target: BRD4 BD2 (Homo sapiens, UniProt O60885, Y97A)
Construct: BRD4 (1-477) (Y97A) and (Y390A); made in house; host or cells: E. coli (pET15b vector)
Assay: BRD4 BD2 TR-FRET competition assay
Type: binding
Details: BRD4 BD2 TR-FRET; read-out: pIC50 in the BRD4 BD2 assay (converted)
Readings of IC50 for the listed compounds
Value type: IC50

| Compound | Measured |
| --- | --- |
| CNC(=O)c1cc(C(=O)N[C@H]2C[C@@H]2C)cn(Cc2cc(C)ccn2)c1=O [Example 335] | 1 to 100 µM |
| CNC(=O)c1cc(C(=O)NC2CC2)cn(CCCc2ccccc2)c1=O [Example 190] | 1 to 100 µM |
| CNC(=O)c1cc(C(=O)NC2CC2)cn(CC2COc3ccccc32)c1=O (centres unmarked) [Example 268] | 1 to 100 µM |
| CNC(=O)c1cc(C(=O)NC2CC2)cn(C(C)c2cccc(C)c2)c1=O (single isomer, unassigned) [Example 211] | 1 to 100 µM |
| CNC(=O)c1cc(C(=O)NC2CCC2c2ccccc2)cn(Cc2ccccc2)c1=O (centres unmarked) [Example 168] | 1 to 100 µM |
| CNC(=O)c1cc(C(=O)N[C@H]2C[C@@H](C(=O)O)C2)cn(Cc2ccccc2)c1=O [Example 169] | 1 to 100 µM |
| CNC(=O)c1cc(C(=O)NC2CC2)cn(CC2CCCc3[nH]cnc32)c1=O (racemic) [Example 250] | 1 to 100 µM |
| CNC(=O)c1cc(C(=O)N[C@@H]2CCC[C@H](O)C2)cn(Cc2ccccc2)c1=O [Example 219] | 1 to 100 µM |
| CNC(=O)c1cc(C(=O)NC2CC2(C)C)cn(Cc2ccccc2)c1=O (single isomer, unassigned) [Example 248] | 1 to 100 µM |
| CNC(=O)c1cc(C(=O)NC[C@@H]2CC[C@@H](O)C2)cn(Cc2ccccc2)c1=O (racemic) [Example 198] | 1 to 100 µM |
| CCO[C@H]1C[C@H]1NC(=O)c1cc(C(=O)NC)c(=O)n(Cc2cccc(C)c2)c1 (racemic) [Example 222] | 1 to 100 µM |
| CNC(=O)c1cc(C(=O)N[C@@H]2CCCC[C@H]2O)cn(Cc2ccccc2)c1=O (racemic) [Example 185] | 1 to 100 µM |
| CNC(=O)c1cc(C(=O)NC[C@H]2CC[C@@H](O)CC2)cn(Cc2ccccc2)c1=O [Example 201] | 1 to 100 µM |
| CNC(=O)c1cc(C(=O)N[C@H]2C[C@@H]2C)cn(Cc2ccc(C(=O)O)cc2)c1=O [Example 339] | 1 to 100 µM |
| CNC(=O)c1cc(C(=O)NC2CC2CO)cn(Cc2cccc(C)c2F)c1=O (centres unmarked) [Example 214] | 1 to 100 µM |
| CNC(=O)c1cc(C(=O)N[C@@H]2C[C@H]2CO)cn(C(C)c2cccc(C)c2)c1=O (mixture of isomers) [Example 267] | 1 to 100 µM |
| CNC(=O)c1cc(C(=O)NC2CCC2)cn(Cc2cnn(C)c2)c1=O [Example 163] | 1 to 100 µM |
| CCOC1CC(NC(=O)c2cc(C(=O)NC)c(=O)n(Cc3ccccc3)c2)C1OC (centres unmarked) [Example 177] | 1 to 100 µM |
| CCCC1(NC(=O)c2cc(C(=O)NC)c(=O)n(Cc3ccccc3)c2)CC1 [Example 178] | 1 to 100 µM |
| CNC(=O)c1cc(C(=O)NC[C@@H]2CCC[C@H](O)C2)cn(Cc2ccccc2)c1=O (racemic) [Example 206] | 1 to 100 µM |
| CNC(=O)c1cc(C(=O)NC[C@H]2CC[C@H](O)CC2)cn(Cc2ccccc2)c1=O [Example 200] | 1 to 100 µM |
| CNC(=O)c1cc(C(=O)NC2CCC2)cn([C@@H](C)c2ccccc2)c1=O [Example 171] | 1 to 100 µM |
| CNC(=O)c1cc(C(=O)N[C@@H]2CC[C@H]2OC)cn(Cc2ccccc2)c1=O (racemic) [Example 243] | 1 to 100 µM |

The origin of these recorded values is patent US10428026B2.
